From: PubChem BioAssay AID504313

biological target: X-box-binding protein 1 (Homo sapiens); assay: XBP1 reporter suppression in cells – counter-screen, dose response (AID 504313); conditions: XBP1 reporter cell assay, percent of control;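 also: CHO cells carrying an XBP1 reporter stimulated with tunicamycin; potency is for inhibition of the tunicamycin-induced reporter signal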
Active and inactive are the calls of the source. No rule for the calls is given here.
Classes used: active, inactive

> print(dat)
                                smiles.repr     class
1  CC1CCN(S(=O)(=O)c2ccc3c(c2)C(=NO)c2cc(S(=O)(=O)N4CCC(C)CC4)ccc2-3)CC1    active
2  CCCOC(=O)c1ccc(Oc2c(-c3ccc(OCC)cc3O)n[nH]c2C)cc1  inactive
3  Nc1c(C(=O)Nc2ccc(S(=O)(=O)N3CCCC3)cc2)sc2nc3ccc(OC(F)(F)F)cc3cc12  inactive
4  COC(=O)c1ccc2c(c1)C(C)(C)C(/C=C/c1ccc(OC)c(OC)c1OC)=[N+]2C  inactive
5    CS(=O)(=O)c1nc(-c2cccs2)cc(C(F)(F)F)n1  inactive

----------
target: X-box-binding protein 1 (Homo sapiens) (UniProt P17861); assay: XBP1 reporter suppression in cells – counter-screen, dose response (AID 504313); settings: XBP1 reporter cell assay, percent of control;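 also: CHO cells carrying an XBP1 reporter stimulated with tunicamycin; potency is for inhibition of the tunicamycin-induced reporter signal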
Activity calls are given as the source filed them. How the calls were made is not given here.
Outcomes: label 1 (active), label 0 (inactive)

> print(dat)
                                    compound    class
 1  C#CC(=O)N(c1cccc(OC)c1)C(C(=O)NC1CCCC1)c1cccs1 (configuration not stated)  label 0
 2       COc1ccc(C(=O)NC(=O)Nc2cc(C)ccn2)cc1  label 0
 3  CCN1C/C(=C/c2ccc(OC)c(O)c2)C(=O)/C(=C/c2ccc(OC)c(O)c2)C1  label 0
 4   S=c1[nH]nc(C2CCCCC2)n1/N=C/C=C/c1ccccc1  label 0
 5      CN1CCN(c2ccc(-c3ccc4ccccc4n3)cc2)CC1  label 0
 6  COc1cc(/C=C(\C#N)c2nc3ccccc3[nH]2)cc(Br)c1OCc1ccc(F)cc1  label 0
 7  CCOC(=O)c1cc(-c2ccccc2)nc2c1c(C)nn2-c1ccccn1  label 0
 8  COc1ccccc1-n1cc([C@@H]2C[C@H]3CN(c4ccccc4)C(=O)[C@]34CCCN24)cn1  label 1
 9  O=[N+]([O-])c1ccc(/C=N/N=C/c2ccc([N+](=O)[O-])o2)o1  label 1
10  O=C1C(C2=NC(c3ccccn3)C3C(=O)N(c4ccc(Cl)cc4Cl)C(=O)C23)=C(O)c2ccccc21 (configuration not stated)  label 0
11    FC(F)(F)c1ccc(/C=N/NC(=S)NC2CCCCC2)cc1  label 0
12  CCOC(=O)CN1C(c2ccc(O)cc2)Nc2ccc(Br)cc2C1c1ccccc1 (configuration not stated)  label 0
13  C[C@H](NC(=O)c1[nH]cnc1C(=O)Nc1ccc(CNC(=O)OC(C)(C)C)cc1)C(=O)OC(C)(C)C  label 0
14  COc1ccc(-c2cnc(OC(C)(C)C)nc2OC(C)(C)C)cc1OC  label 0
15  O=C(On1c(-c2ccccc2)nc2ccccc2c1=O)c1ccco1  label 0
16  COc1ccc(/C=C2/SC(=S)N(CCCC(=O)Nc3ccc(O)cc3)C2=O)cc1  label 1
17      O=C(OCn1ncc(Cl)c(Cl)c1=O)c1ccc(F)cc1  label 1
18       Cc1ccc(-c2nc(C(Cl)Cl)c3ccccc3n2)cc1  label 1
19  COc1ccc(CNc2oc(-c3cccc4ccccc34)nc2C#N)cc1  label 0
20  Cc1ccc(N2C(=O)NC(=O)/C(=C\C=C\c3ccco3)C2=O)cc1  label 0
21  Cc1cc(C)c(S(=O)(=O)NCCn2c(C)cc3ccccc32)c(C)c1  label 0
22       Cc1nc(COC(=O)c2cc(O)c3ccccc3c2O)cs1  label 0
23  CCOC(=O)Cc1csc(NC(=O)NC2(C(F)(F)F)Oc3cc(Cl)c(Cl)cc3O2)n1  label 0
24  NC(=O)c1ccc(C(F)(F)F)n(Cc2c(Cl)cccc2Cl)c1=O  label 0
25  NC(=O)CC(NC(=O)Cc1cccc2ccccc12)c1ccc(NCc2ccc(F)cc2)c([N+](=O)[O-])c1 (configuration not stated)  label 0
26  C=CCc1cc(C)ccc1OCC(O)CN1CCN(c2ccccc2)CC1 (configuration not stated)  label 0
27  NC(=S)n1[nH]c(-c2ccc([N+](=O)[O-])cc2)c(N=Nc2cccc([N+](=O)[O-])c2)c1=O  label 0
28  O=[N+]([O-])c1c(NCCCO)cc(Sc2ccc(Cl)cc2)c2nonc12  label 0
29  COc1ccccc1-c1cc(C(F)(F)F)nc(S(=O)(=O)CCCC(=O)Nc2cccnc2Cl)n1  label 0
30  O=C(Nc1cc(N2CCOCC2)ncn1)NC1(C(F)(F)F)Oc2ccc(Cl)cc2O1 (configuration not stated)  label 0
31  O=c1[nH]c(NNC(=S)NC2CCCCC2)nc2c1C1(CCCC1)Cc1ccccc1-2  label 0
32  CCCCC(CC)Cn1c(N)c(C#N)c2nc3ccccc3nc21 (configuration not stated)  label 0
33  N#CC1=C(N)N2C(=C(C#N)C1c1ccc(Br)cc1)Nc1ccccc12 (configuration not stated)  label 0
34     Fc1ccc(Nc2nc(NCc3ccco3)c3ccccc3n2)cc1  label 0
35  O=C1C(Cl)=C(N2CCCCC2)C(=O)C(Cl)=C1c1cnc(N2CCCCC2)s1  label 0
36  C=C(C)COc1ccc(-c2n[nH]c(C)c2-c2ccccc2OC)c(O)c1  label 0
37       CCCCCCCCCCCCCCCC[n+]1ccc(/C=N/O)cc1  label 0
38  Fc1ccc(-n2nnnc2-c2cnc(-c3cccs3)nc2C(F)(F)F)cc1  label 0
39  CCOC(=O)c1ccc(NC(=O)c2nc[nH]c2C(=O)N[C@@H](C)C(=O)OC(C)(C)C)cc1  label 0
40  CC1(c2ccccc2)CC(C)(C)n2c(O)c(C3=NC(=S)NC3=O)c3cccc1c32 (configuration not stated)  label 0
41  COc1ccc2c(C)nc(Nc3nc(C)c(C)c(=O)[nH]3)nc2c1  label 1
42  O=C(CCl)N(Cc1cccc([N+](=O)[O-])c1)c1cccc(Cl)c1  label 0

----------
target: UniProtKB P17861; assay: XBP1 reporter suppression in cells – counter-screen, dose response (AID 504313); conditions: XBP1 reporter cell assay, percent of control;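 also: CHO cells carrying an XBP1 reporter stimulated with tunicamycin; potency is for inhibition of the tunicamycin-induced reporter signal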
Active and inactive are the calls of the source. How the calls were made is not given here.
Outcome codes: 1 (yes) for active, 0 (no) for inactive

> print(dat)
                                 smiles.repr    class
 1  O=C(Nc1cccc(Cl)c1Cl)c1cc(S(=O)(=O)NCCc2ccccc2)ccc1F   0 (no)
 2  CC[n+]1c(/C=C2\Sc3ccccc3N2C)ccc2cccc(C)c21  1 (yes)
 3  COc1ccc(OCc2cccc(C(=O)Nn3cc([N+](=O)[O-])cn3)c2)cc1  1 (yes)
 4           Nc1ccc2oc(-c3cc(Br)ccc3Cl)nc2c1  1 (yes)
 5  O=C(Nc1ccc(S(=O)(=O)N2CCOCC2)cc1)c1ccc(CN2CCc3ccccc3C2)cc1   0 (no)
 6  CC(C)CCSc1nc2c(c(=O)[nH]c(=O)n2C)n1CCCc1ccccc1   0 (no)
 7  CCOC(=O)c1c2ccc(OCC(=O)N/N=C/c3ccc(C)cc3)cc2n2ccccc12   0 (no)
 8    Cc1ccc(NC(=O)CCl)cc1S(=O)(=O)N1CCCCCC1   0 (no)
 9         CCCCCc1c(C)nc(NCc2ccccc2)[nH]c1=O   0 (no)
10  COC(=O)CS(=O)(=O)c1nnc([C@H](Cc2ccccc2)NC(=O)OC(C)(C)C)o1   0 (no)

----------
biological target: X-box-binding protein 1 (Homo sapiens); experiment: XBP1 reporter suppression in cells – counter-screen, dose response (AID 504313); settings: XBP1 reporter cell assay, percent of control;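 also: CHO cells carrying an XBP1 reporter stimulated with tunicamycin; potency is for inhibition of the tunicamycin-induced reporter signal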
Activity calls are given as the source filed them. No rule for the calls is given here.
Endpoint name: IC50

> print(dat)
                                    molecule              result
 1  COc1ccc(-c2[nH]ncc2N=Nc2cc(C)cc(C)c2)cc1  > 10 µM (inactive)
 2            Nc1cc(Cl)c2nonc2c1[N+](=O)[O-]            inactive
 3   O=C(Cc1ccccc1)Nc1cccc(N2C(=O)C=CC2=O)c1            inactive
 4  CC(=O)Nc1ccc(NC2=Nc3ccccc3N3C2=Nc2c(c(C)nn2-c2ccccc2)C3c2ccccc2)cc1 (stereo not given)            inactive
 5  Cc1ccc2nc(NC(=O)C3CCN(S(=O)(=O)c4cc([N+](=O)[O-])ccc4Cl)CC3)sc2c1            inactive
 6  CC(C)(C)c1ccc(C(=O)NNC(=O)c2cccc(Br)c2)cc1  > 10 µM (inactive)
 7       O=C(/C=C/c1ccccc1)Nc1cccc(C(=O)O)c1            inactive
 8  O=C(NNc1ccccc1[N+](=O)[O-])Nc1ccc(Cl)c(Cl)c1  > 10 µM (inactive)
 9  COc1ccc(NC(=O)/C(Cl)=C(/Cl)S(=O)(=O)Cc2ccc(C)cc2)cn1            inactive
10      CCOc1cc(NC(=O)CCl)c(OCC)cc1NC(=O)CCl  > 10 µM (inactive)
